- Tested on: E. coli ATCC 51659
- Assay type: cell-based, Escherichia coli
- test parameters: same EC50 presented in micromolar units; 10 mM sodium phosphate buffer, 3 h, 37°C; read-out: EC50
readout: pEC50
Entry type: numeric. Quantity: pEC50, the -log10 of concentration in molar units.

-- ask // map GLMDTVKNAAKNLAGQLLD KIKCKITG (disulfide) [PHNX-8, 28-residue synthetic AMP with a C-terminal rana box, designed by positional analysis on Dataset 2] to recorded pEC50 (system: E. coli ATCC 51659)
-- reply 7.70
